These measurements were taken from paper PMC11112612.

biological target: peroxisome proliferator-activated receptor γ (PPARγ) (Homo sapiens, UniProt P37231); construct: gene PPARG; recombinant PPARγ LBD; experiment: in vitro CDK5/P35 kinase assay on PPARγ LBD (ADP-Glo, phospho-Ser-273 Western blot); histone H1 phosphorylation not inhibited; PPRE luciferase in HEK293T; assay type: biochemical
Sequence (P37231 231-505 limits assumed): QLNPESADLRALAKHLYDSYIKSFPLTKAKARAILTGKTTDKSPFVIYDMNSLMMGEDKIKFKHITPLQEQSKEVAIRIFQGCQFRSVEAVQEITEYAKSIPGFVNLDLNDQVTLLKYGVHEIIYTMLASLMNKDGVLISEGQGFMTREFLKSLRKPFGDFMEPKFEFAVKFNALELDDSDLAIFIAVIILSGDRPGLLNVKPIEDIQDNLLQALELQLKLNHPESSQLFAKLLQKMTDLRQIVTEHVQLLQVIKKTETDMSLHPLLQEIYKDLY
Sequence (Q00535 whole entry partner, the tested form may be a part): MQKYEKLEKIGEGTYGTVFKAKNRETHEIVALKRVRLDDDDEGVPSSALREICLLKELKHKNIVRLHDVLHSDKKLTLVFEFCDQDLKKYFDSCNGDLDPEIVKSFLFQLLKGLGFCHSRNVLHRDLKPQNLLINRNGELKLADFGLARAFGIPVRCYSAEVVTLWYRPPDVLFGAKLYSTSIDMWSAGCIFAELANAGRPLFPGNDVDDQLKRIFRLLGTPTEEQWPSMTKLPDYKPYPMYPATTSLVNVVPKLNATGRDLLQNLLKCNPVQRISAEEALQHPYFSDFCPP
Sequence (Q15078 2-307 partner): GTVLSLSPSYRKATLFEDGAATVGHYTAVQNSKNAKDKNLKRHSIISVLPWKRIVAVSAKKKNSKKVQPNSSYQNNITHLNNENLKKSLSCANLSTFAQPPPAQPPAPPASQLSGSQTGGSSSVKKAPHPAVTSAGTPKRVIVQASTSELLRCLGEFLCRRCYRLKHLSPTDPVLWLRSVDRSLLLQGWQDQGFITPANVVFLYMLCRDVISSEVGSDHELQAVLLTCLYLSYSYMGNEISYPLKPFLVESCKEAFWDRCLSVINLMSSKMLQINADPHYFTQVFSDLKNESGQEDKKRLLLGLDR
assay readout: pIC50
The scale used: pIC50 is minus the common logarithm of the concentration in molar units.

Query: # return recorded pIC50 for entry COc1ccc(Cl)cc1C(=O)NCCc1ccc(S(=O)(=O)NC(=O)NC2CCCCC2)cc1 [glibenclamide]
Result: 7.60
